molecular target: Interleukin-23 receptor (Homo sapiens); experiment: Inhibition of interleukin-23 binding to human interleukin-23 receptor incubated for 2 hrs by competitive binding ELISA
Sequence (Q5VWK5 whole entry): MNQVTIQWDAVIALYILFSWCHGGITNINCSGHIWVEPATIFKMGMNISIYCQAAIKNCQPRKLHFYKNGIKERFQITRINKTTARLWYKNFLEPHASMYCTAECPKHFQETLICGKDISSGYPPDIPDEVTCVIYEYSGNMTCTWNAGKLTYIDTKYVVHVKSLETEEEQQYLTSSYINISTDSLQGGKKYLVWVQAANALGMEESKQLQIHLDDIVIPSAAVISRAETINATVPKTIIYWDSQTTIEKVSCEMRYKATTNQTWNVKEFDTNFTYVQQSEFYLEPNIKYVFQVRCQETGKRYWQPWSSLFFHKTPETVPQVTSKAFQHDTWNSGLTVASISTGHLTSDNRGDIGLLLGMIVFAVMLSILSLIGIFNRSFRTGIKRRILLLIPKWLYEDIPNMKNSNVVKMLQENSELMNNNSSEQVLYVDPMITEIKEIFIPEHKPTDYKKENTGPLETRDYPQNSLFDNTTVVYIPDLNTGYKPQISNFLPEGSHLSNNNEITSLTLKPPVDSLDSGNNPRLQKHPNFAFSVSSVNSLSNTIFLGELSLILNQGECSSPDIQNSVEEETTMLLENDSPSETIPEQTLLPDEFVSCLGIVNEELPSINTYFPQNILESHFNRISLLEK
// IC50 lookup, one value per entry

sample-smiles	reported-measurement
CC(=O)N[C@@H](CS)C(=O)N[C@@H](CCC(N)=O)C(=O)N[C@H](C(=O)N[C@@H](Cc1c[nH]c2ccccc12)C(=O)N[C@@H](CCC(N)=O)C(=O)N[C@@H](CS)C(=O)N[C@@H](Cc1ccc(O)cc1)C(=O)N[C@@H](Cc1c[nH]c2ccccc12)C(=O)N[C@@H](CCCNC(=N)N)C(=O)N[C@@H](CN)C(=O)N[C@@H](CC(N)=O)C(=O)NCC(=O)NCCOCC(=O)N[C@H](CCCCN)C(N)=O)[C@@H](C)O	< 500 nM
CC(=O)NCCCC[C@H](NC(=O)[C@](C)(CCCCN)NC(=O)[C@H](Cc1ccc2ccccc2c1)NC(=O)[C@H](Cc1ccc(OCCN)cc1)NC(=O)[C@@H](NC(=O)[C@H](CCC(N)=O)NC(=O)[C@H](Cc1c[nH]c2ccccc12)NC(=O)[C@@H](NC(=O)[C@H](CCC(N)=O)NC(=O)[C@@H](NC(C)=O)C(C)(C)S)[C@@H](C)O)C(C)(C)S)C(=O)N[C@@H](CC(N)=O)C(=O)N[C@@H](CC(N)=O)C(N)=O	< 10 nM

Ask | Could you tell me which IC50 is on file for CC(=O)N[C@H]1CCSC[C@@H](C(=O)N[C@@H](Cc2ccc(OCCN)cc2)C(=O)N[C@@H](Cc2ccc3ccccc3c2)C(=O)N[C@@](C)(CCCCN)C(=O)N[C@@H](CCCCNC(=O)CC(C)C)C(=O)N[C@@H](CC(N)=O)C(=O)NCC(N)=O)NC(=O)[C@H](CCC(N)=O)NC(=O)[C@H](Cc2c[nH]c3ccccc23)NC(=O)[C@H]([C@@H](C)O)NC(=O)[C@H](CCC(N)=O)NC1=O ?
Reply | < 10 nM

Reference source for all entries: ChEMBL document CHEMBL4417631
